Data credit: patent US4612311A

assay: LD50; set-up: species or system male mice (NMRI); settings: mouse, in vivo; oral; ">": no effect up to this highest examined dosage
Listed molecules paired with reported LD50

Cc1nc2n(n1)-c1ccc(Cl)cc1S(=O)(c1ccccc1)=N2 (racemic) :: 1600 mg/kg
Cc1nc2n(n1)-c1ccc(Cl)cc1S(=O)(c1cccc(Cl)c1)=N2 (racemic) :: > 400 mg/kg
O=S1(c2ccccc2)=Nc2ncnn2-c2cc(Cl)c(Br)cc21 (racemic) :: > 400 mg/kg
Cc1nc2n(n1)-c1ccc(Cl)cc1S(=O)(c1ccccc1Cl)=N2 (racemic) :: > 400 mg/kg

# evaluate next
Record O=S1(c2ccccc2)=Nc2ncnn2-c2ccc(Cl)cc21 (racemic) . Reported LD50: > 400 mg/kg
